System: CCRF-CEM leukemia
assayRemarks: NCI tumour cell line growth inhibition, 48 h
Below, each of the compounds is paired with its reported GI50 value.
quantityMeasured: GI50

O=S(=O)(c1ccc2c(c1)C(=NO)c1cc(S(=O)(=O)N3CCCCC3)ccc1-2)N1CCCCC1
0.0727 µM
CN(C)c1cc2c(Nc3ccc4nc(Cc5ccccc5)[nH]c4c3)ncnc2cn1
> 18.7 µM
Clc1cccc(Cn2cc(Cc3cn(Cc4cccc(Cl)c4)c4ccccc34)c3ccccc32)c1
> 100 µM
CCC[CH2][Sn]([CH2]CCC)([O]C(=O)c1cc(OC)c(OC)c(OC)c1)[O]C(=O)c1cc(OC)c(OC)c(OC)c1
0.25 µM
COc1ccc(Nc2nc(NCc3ccccc3)c3ccccc3n2)cc1
2.76 µM
Cc1oncc1C(=O)Nc1ccc(C(F)(F)F)cc1
17.8 µM
CCCCN(CCCC)c1cc(C(=O)CCCCCN)c2ccccc2n1
3.2 µM
C[C@H](Nc1ccc(C#N)n(C)c1=O)c1cc2cc(Cl)ccc2[nH]c1=O
24.5 µM
O=C(/C=C/c1ccccc1Cl)c1ccc(O)cc1
6.18 µM
O=C(c1ccc(F)c(F)c1Nc1ccc(I)cc1F)N1CC(O)([C@H]2CCCCN2)C1
12.5 µM
